Every entry's value here was drawn from the supplement of paper PMC9112550.

Readings of shrunken log2 fold change for the listed sequences
# Test system: Escherichia coli TOP10
# protocol.summary: shrunken log2 fold change of peptide-encoding DNA abundance (4.5 h post-induction vs induction); higher = less antimicrobial activity (less host growth inhibition)
# conditions.used: time post-induction: 4.5 h; library: site-saturation at positions 5, 18, 19, 20
Just the number, please.

query.sequence: RRIRWRPPRLPRPRPRPTWPPRP
quantitative.result: 0.466

Hi! What's the reported shrunken log2 fold change for `RRIRTRPPRLPRPRPRPVMVPRP` on Escherichia coli TOP10?
-0.0537

Missing value: shrunken log2 fold change, Escherichia coli TOP10, entry `RRIRFRPPRLPRPRPRPPVFPRP` . Fill in?
0.138

# query: shrunken log2 fold change | item `RRIRKRPPRLPRPRPRPFLMPRP` | system: Escherichia coli TOP10
0.043

Hi! What's the reported shrunken log2 fold change for `RRIRKRPPRLPRPRPRPMGNPRP` on Escherichia coli TOP10?
0.111

Please tell me: shrunken log2 fold change of `RRIRIRPPRLPRPRPRPSFVPRP` , system Escherichia coli TOP10?
-0.509

So what shrunken log2 fold change did `RRIRSRPPRLPRPRPRPLPWPRP` get with Escherichia coli TOP10?
0.21

// map `RRIRCRPPRLPRPRPRPPTGPRP` to recorded shrunken log2 fold change (system: Escherichia coli TOP10)
0.232

I'm curious: which shrunken log2 fold change was measured for `RRIRIRPPRLPRPRPRPYAVPRP` tested on Escherichia coli TOP10?
-0.937

API: value(readout=shrunken log2 fold change, system=Escherichia coli TOP10) for record `RRIRPRPPRLPRPRPRPVKVPRP`
0.161

Observed shrunken log2 fold change on Escherichia coli TOP10 for `RRIRHRPPRLPRPRPRPSVKPRP` , please.
-0.364

Lookup: shrunken log2 fold change / Escherichia coli TOP10 / `RRIRSRPPRLPRPRPRPGHQPRP`
-0.167

Item: `RRIRFRPPRLPRPRPRPNWYPRP` Test system: Escherichia coli TOP10 Read-out: shrunken log2 fold change Value: ?
-0.542

For the record `RRIRIRPPRLPRPRPRPSCVPRP` , what value of shrunken log2 fold change is listed for Escherichia coli TOP10?
-0.544

Value wanted: shrunken log2 fold change (Escherichia coli TOP10) of entry `RRIRRRPPRLPRPRPRPVGWPRP`
0.666

Form entry - test system: Escherichia coli TOP10; read-out: shrunken log2 fold change; sequence: `RRIRQRPPRLPRPRPRPQKVPRP`;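 note: peptides expressed intracellularly from a pBAD plasmid library in pooled LB shake-flask culture, induced with 0.3% L-arabinose, DNA abundance read by NGS, three biological replicates, DESeq2 with apeglm shrinkage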
-0.0255

Notebook entry, Escherichia coli TOP10 assay: shrunken log2 fold change of `RRIRGRPPRLPRPRPRPTNFPRP` = ?
-0.0941

shrunken log2 fold change of `RRIRTRPPRLPRPRPRPRRNPRP` on Escherichia coli TOP10?
0.125
